Test: Selectivity ratio of inhibition of PKCdelta (unknown origin) to inhibition of PKC theta (unknown origin) at 1 mM ATP concentration
Threshold 300: Selectivity ratio strictly smaller gives MET, otherwise NOT MET.

{"molecule": "CC1CCCOc2nc(ccc2C(N)=O)-n2c(=O)[nH]c3nccc(c32)O1 (stereo not given)", "cat": "MET"}
{"molecule": "CC1CCN2c3nc(ccc3C(=O)NC2(C)C)-n2c(=O)[nH]c3nccc(c32)O1 (stereo not given)", "cat": "NOT MET"}
{"molecule": "CC1CC(C)Oc2ccnc3[nH]c(=O)n(c23)-c2cccc(n2)O1 (stereo not given)", "cat": "MET"}
{"molecule": "CC1CCN(C)c2c(F)cnc3cc(F)c(nc23)-n2c(=O)[nH]c3nccc(c32)O1 (stereo not given)", "cat": "MET"}
{"molecule": "CC1CCC(C)n2ccc(=O)c3ccc(nc32)-n2c(=O)[nH]c3nccc(c32)O1 (stereo not given)", "cat": "NOT MET"}
